Reported Metric: melting point

Molecule | Result
Clc1ccc2c(c1)N(CC#CCN1CCCC1)c1ccccc1S2 | 48 to 50 °C
CCCCc1nc2c(n1Cc1ccc(-c3ccccc3S(N)(=O)=O)cc1)C(=O)C(F)CS2 (stereo unspecified) | 208 °C
Cc1cccc(C)c1N1CC(C)N(c2c(C)cccc2C)C1=N (single isomer, unassigned; (+)) | 99 to 101 °C
CCOC(=O)c1cn2c3c(c(Br)c(F)cc3c1=O)OCC2C (stereo unspecified) | > 250 °C
CCc1cc(Oc2ccc(S(C)(=O)=O)nc2)cc2cc(C3=NCC(CC(N)=O)S3)[nH]c12 (stereo unspecified) | 190 to 191 °C
Cc1cc(CCCCCOc2c(C)cc(-c3nnn(CCO)n3)cc2C)on1 | 69 to 70 °C
CSc1nc(F)cc(NN)n1 | 153 to 154 °C
Cc1cc(C(C)(C)C#N)cc(C(C)(C)C#N)c1 | 126 to 127 °C
Cc1ccc(NC(=O)c2ccc3c(c2)C(=O)N(c2c(C)cccc2C)C3=O)cc1C | 223 to 225 °C
COc1cn(-c2ccc(N3CC(F)C3)cc2F)nc(-c2ccnn2-c2ccccc2)c1=O | 162 to 163 °C
c1ccc2c(c1)nc(NCCN1CCNCC1)c1c3ccccc3[nH]c21 | 210 to 211 °C
Brc1ccc2nc(-c3ccccc3)nn2c1 | 146 °C
COc1cc(C#N)ccc1OCCCN1CCC(c2noc3cc(F)ccc23)CC1 | 107 to 108 °C
CSC(=C[N+](=O)[O-])NCCSCc1[nH]cnc1C | 147 to 150 °C
CC1(C)CC(=O)Nc2ccc(N)cc21 | 126 to 130 °C
CCOC(=O)Cc1ccc(C(=O)c2ccccc2)cc1[N+](=O)[O-] | 61 to 62 °C
CCCC1(CCC)c2ccccc2-c2cc(NC(=O)c3cc4oc5ccccc5c4cc3OC)c(O)cc21 | 252 to 255 °C
CN1C(=O)C(C(=O)Nc2ccc(F)cc2)S(=O)(=O)c2ccc(Cl)cc21 (stereo unspecified) | 234 to 236 °C
Cc1ccnc(NC(c2ccc(C(F)(F)F)cc2)c2ccc3cccnc3c2O)n1 (stereo unspecified) | 144 to 147 °C
CN1CCN(C2=Nc3ccccc3Nc3cscc32)CC1 | 200 to 201 °C
Nc1ccccc1CS(=O)c1nc2ccccc2[nH]1 (stereo unspecified) | 164 to 165 °C
CC(=O)N1c2ccc(C#N)cc2C(Nc2ccc(Cl)cc2)CC1C (stereo unspecified) | 212 to 213 °C
O=C(Nc1ccc(F)cc1)N(CCO)CCCCO | 62 to 64 °C
CCC(CO)Nc1ccc(Cl)cc1[N+](=O)[O-] (stereo unspecified) | 45 °C
O=C(CCCC=CCC1C(O)CC(O)C1C=CC(O)CCc1ccccc1)ON1C(=O)CCC1=O (stereo unspecified) | 93.5 to 103 °C
COc1ccc(C=Nc2cc(OC)c(OC)c(OC)c2)cc1O[Si](C)(C)C(C)(C)C | 90 to 91 °C
Cc1ccc(C(=O)c2c(C)cc(CC(=O)O)n2C)cc1 | 160 to 161 °C
CCCCNC(=O)Nc1ccc(N(CCC)CCC)cc1C(=O)NCC1CCN(C(c2ccccc2)c2ccccc2)CC1 | 172 °C
CN1C(=O)CCC(C)(C)c2cc([N+](=O)[O-])ccc21 | 115 °C
CCOC(=O)C=C1c2ccccc2C=C(OC)c2sccc21 | 91 to 93 °C
CCOC(=O)CC=NCC(O)COc1ccccc1C#N (stereo unspecified) | 120 °C
CCCCSc1cc(C(=O)OC)cc(S(N)(=O)=O)c1Oc1ccccc1 | 122 to 123 °C
O=Cc1cc([N+](=O)[O-])c(CCl)cc1O | 135 °C
NC(=O)CC(O)(Cn1cncn1)C(F)(F)C(F)(F)C(F)(F)C(F)(F)F (stereo unspecified) | 145 to 146 °C
O=C(O)Cc1cccc(Oc2ccc(Cl)cc2)c1O | 100 to 102 °C
CCOCc1nc2c(N)nc3ccccc3c2n1Cc1ccccc1 | 204 to 205 °C
COc1ccc(C=Cc2nc3c(c(=O)n(C)c(=O)n3C)n2C)cc1 | > 320 °C
O=C(NCC(=O)N1CCCC1)c1ccc(-c2ccc3nnn(Cc4ccc5ncccc5c4)c3n2)cc1F | 175 to 177 °C
O=C(NNc1ccc(NC(=S)NCc2ccccc2)cc1)c1ccc(F)cc1 | 186 to 188 °C
CC(C)(C)OC(=O)N[C@H]1C(=O)N[C@H]1CO (relative stereo) | 128 to 131 °C
COc1cc(Cl)c(NN)c(Cl)c1 | 124 to 125 °C
